Listing of recorded pIC50 by entry.
Target: CDK2/Cyclin E1 (Homo sapiens, UniProt P24941)
Experiment: CDK2/Cyclin E1 Biochemical Assay (TR-FRET), 0.060 mM ATP
Conditions: 0.15 μM Rb (Ser780)-biotin substrate, pH7.0, 60 min preincubation, 120 min reaction, room temperature
pIC50: −log10 of the molar value.
measurement_kind: pIC50

# compound, reported_result
measured = [
    ("CC[C@H](C)NC(=O)O[C@H]1CC[C@@H](c2cc(Nc3ccc4c(c3F)C(C)NS4(=O)=O)n[nH]2)C1 (single isomer, unassigned) [Example 54a]", 8.96),
    ("CC(C)NC(=O)O[C@H]1CC[C@@H](c2cc(Nc3ccc4c(c3F)C(CCO)S(=O)(=O)N4CCO)n[nH]2)C1 (relative stereo) [Example 253]", 8.37),
    ("CC(C)NC(=O)O[C@H]1CC[C@@H](c2cc(Nc3cc4c(cc3F)S(=O)(=O)NC4(C)C)n[nH]2)C1 (relative stereo) [Example 14]", 7.52),
    ("O=C(NC1CCCC1)O[C@H]1CC[C@@H](c2cc(Nc3ccc4c(c3F)CS(=O)(=O)N4)n[nH]2)C1 (single isomer, unassigned) [Example 400b]", 8.47),
    ("CC(C)CN1Cc2c(ccc(Nc3cc([C@@H]4CC[C@H](OC(=O)NC(C)C)C4)[nH]n3)c2F)S1(=O)=O (relative stereo) [Example 101]", 8.00),
    ("CN1c2ccc(Nc3cc([C@@H]4CC[C@H](OC(=O)NCCC(F)(F)F)C4)[nH]n3)cc2CS1(=O)=O (relative stereo) [Example 230]", 8.01),
]

###

Target: CDK2/Cyclin E1 (Homo sapiens, UniProt P24941)
Experiment: CDK2/Cyclin E1 Biochemical Assay (TR-FRET), 1 mM ATP
Details: 0.15 μM Rb (Ser780)-biotin substrate, pH7.0, 60 min preincubation, 90 min reaction, room temperature
Parameter: IC50. Scope: all listed entries.

# compound, IC50 [nM]
rows = [
    ("O=C(NCC1CC1)O[C@H]1CC[C@@H](c2cc(Nc3cc4c(cc3F)S(=O)(=O)NC4)n[nH]2)C1 (relative stereo)", 24),
    ("CC(C)(O)CN1c2ccc(Nc3cc([C@@H]4CC[C@H](OC(=O)NC5(C)CC5)C4)[nH]n3)c(F)c2CS1(=O)=O (relative stereo)", 1.3),
    ("CC(C)NC(=O)O[C@H]1CC[C@@H](c2cc(Nc3ccc4c(c3F)N(C)S(=O)(=O)N4)n[nH]2)C1 (relative stereo)", 63),
    ("CC(C)(CO)NC(=O)O[C@H]1CC[C@@H](c2cc(Nc3ccc4c(c3F)CS(=O)(=O)N4C3CC3)n[nH]2)C1 (single isomer, unassigned) [Example 363b]", 1.5),
    ("CC1(C)CCN1C(=O)O[C@H]1CC[C@@H](c2cc(Nc3cc4c(cc3F)S(=O)(=O)NC4)n[nH]2)C1 (relative stereo)", 4.1),
    ("O=C(NC12CC(C1)C2)O[C@H]1CC[C@@H](c2cc(Nc3ccc4c(c3F)CS(=O)(=O)N4)n[nH]2)C1 (relative stereo)", 1.1),
    ("O=C(NC1CCOC1)O[C@H]1CC[C@@H](c2cc(Nc3ccc4c(c3)CS(=O)(=O)N4)n[nH]2)C1 (relative stereo)", 21),
    ("CN(C(=O)O[C@H]1CC[C@@H](c2cc(Nc3ccc4c(c3F)CNS4(=O)=O)n[nH]2)C1)C1CCOC1 (relative stereo)", 249),
    ("CC(C)(C)NC(=O)O[C@H]1CC[C@@H](c2cc(Nc3ccc4c(c3F)CS(=O)(=O)N4)n[nH]2)C1 (relative stereo)", 2.7),
    ("O=C(NC12CC(C1)C2)O[C@H]1CC[C@@H](c2cc(Nc3cc4c(cc3F)S(=O)(=O)NC4)n[nH]2)C1 (single isomer, unassigned) [Example 422a]", 2.3),
    ("CC1(C)CCCN1C(=O)O[C@H]1CC[C@@H](c2cc(Nc3cc4c(cc3F)S(=O)(=O)NC4)n[nH]2)C1 (relative stereo)", 4.8),
    ("CC1(NC(=O)O[C@H]2CC[C@@H](c3cc(Nc4cc5c(cc4F)S(=O)(=O)NC5)n[nH]3)C2)CCC1 (relative stereo)", 1.8),
]

###

Overview of recorded IC50 for various compounds
Biological target: CDK1/Cyclin B1 (Homo sapiens, UniProt P06493)
Sequence (P06493 whole entry): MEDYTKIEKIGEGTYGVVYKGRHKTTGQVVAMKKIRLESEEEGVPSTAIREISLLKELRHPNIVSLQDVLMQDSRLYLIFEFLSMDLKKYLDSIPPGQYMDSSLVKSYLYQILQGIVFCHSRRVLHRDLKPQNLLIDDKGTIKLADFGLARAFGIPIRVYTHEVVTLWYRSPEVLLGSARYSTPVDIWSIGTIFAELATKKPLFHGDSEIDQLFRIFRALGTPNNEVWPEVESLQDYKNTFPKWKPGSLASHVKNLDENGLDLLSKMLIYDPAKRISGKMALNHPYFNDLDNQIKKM
Sequence (P14635 whole entry partner): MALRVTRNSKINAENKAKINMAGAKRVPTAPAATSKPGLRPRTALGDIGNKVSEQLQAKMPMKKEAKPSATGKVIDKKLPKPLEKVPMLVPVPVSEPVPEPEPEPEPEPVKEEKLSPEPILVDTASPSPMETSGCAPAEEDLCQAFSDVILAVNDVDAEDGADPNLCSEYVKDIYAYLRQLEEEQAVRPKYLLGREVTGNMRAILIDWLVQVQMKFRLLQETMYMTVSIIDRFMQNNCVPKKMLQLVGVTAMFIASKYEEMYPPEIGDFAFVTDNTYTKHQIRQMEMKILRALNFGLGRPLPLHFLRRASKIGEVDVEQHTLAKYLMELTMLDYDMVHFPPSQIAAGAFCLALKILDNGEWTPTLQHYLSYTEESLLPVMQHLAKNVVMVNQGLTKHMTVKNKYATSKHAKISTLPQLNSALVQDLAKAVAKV
Test: CDK1/Cyclin B1 Biochemical Assay (TR-FRET), 0.015 mM ATP
Settings: 0.15 μM Rb (Ser780)-biotin substrate, pH7.0, 60 min preincubation, 120 min reaction, room temperature

# compound, IC50 (nM)
records = [
    ("CC(C)NC(=O)O[C@H]1CC[C@@H](c2cc(Nc3ccc4c(c3)C(C)S(=O)(=O)N4C)n[nH]2)C1 (relative stereo)", 35),
    ("CC[C@H](C)NC(=O)O[C@H]1CC[C@@H](c2cc(Nc3ccc4c(c3)CS(=O)(=O)N4)n[nH]2)C1 (single isomer, unassigned) [Example 323b]", 17),
    ("CC(C)NC(=O)O[C@H]1CC[C@@H](c2cc(Nc3ccc4c(c3F)S(=O)(=O)N(C)C4)n[nH]2)C1 (relative stereo)", 328),
    ("C[C@H]1[C@H](O)CN1C(=O)O[C@H]1CC[C@@H](c2cc(Nc3ccc4c(c3F)CN(C)S4(=O)=O)n[nH]2)C1 (relative stereo)", 407),
    ("COc1cc2c(cc1Nc1cc([C@@H]3CC[C@H](OC(=O)NC(C)C)C3)[nH]n1)S(=O)(=O)NC2 (relative stereo)", 5580),
    ("CC(C)(C)NC(=O)O[C@H]1CC[C@@H](c2cc(Nc3ccc4c(c3)CS(=O)(=O)N4)n[nH]2)C1 [Example 403b]", 7.3),
]

###

Target: CDK2/Cyclin E1 (Homo sapiens)
Test: CDK2/Cyclin E1 Biochemical Assay (TR-FRET), 0.060 mM ATP
Conditions: 0.15 μM Rb (Ser780)-biotin substrate, pH7.0, 60 min preincubation, 120 min reaction, room temperature
pIC50: −log10 of the molar value.
Recorded pIC50 by entry

# compound, pIC50
rows = [
    ("CC(C)NC(=O)O[C@H]1CC[C@@H](c2cc(Nc3ccc4c(c3)C3(CC3)S(=O)(=O)N4C)n[nH]2)C1 (relative stereo)", 7.96),
    ("CN1c2ccc(Nc3cc([C@@H]4CC[C@H](OC(=O)NC(C)(C)CO)C4)[nH]n3)cc2CS1(=O)=O (single isomer, unassigned) [Example 325a]", 8.80),
    ("CC(C)NC(=O)O[C@H]1CC[C@@H](c2cc(Nc3ccc4c(c3)CCS(=O)(=O)N4)n[nH]2)C1 (single isomer, unassigned) [Example 246b]", 8.64),
    ("O=C(NCCC(F)(F)F)O[C@H]1CC[C@@H](c2cc(Nc3cc4c(cc3F)S(=O)(=O)NC4)n[nH]2)C1 (single isomer, unassigned) [Example 419b]", 8.74),
    ("CC(C)NC(=O)O[C@H]1CC[C@@H](c2cc(Nc3cc(F)c4c(c3)CS(=O)(=O)N4C3COC3)n[nH]2)C1 (relative stereo)", 8.52),
    ("CC1(O)CCN(C(=O)O[C@H]2CC[C@@H](c3cc(Nc4ccc5c(c4)CNS5(=O)=O)n[nH]3)C2)C1 (relative stereo)", 8.10),
    ("CN1c2ccc(Nc3cc([C@@H]4CC[C@H](OC(=O)NCC5COC5)C4)[nH]n3)cc2CS1(=O)=O (relative stereo)", 7.34),
    ("CCCNC(=O)O[C@H]1CC[C@@H](c2cc(Nc3ccc4c(c3F)CS(=O)(=O)N4CCO)n[nH]2)C1 (single isomer, unassigned) [Example 272a]", 7.81),
    ("CCCNC(=O)O[C@H]1CC[C@@H](c2cc(Nc3ccc4c(c3F)CNS4(=O)=O)n[nH]2)C1 (single isomer, unassigned) [Example 138b]", 8.82),
    ("Cc1c(Nc2cc([C@@H]3CC[C@H](OC(=O)NC(C)C)C3)[nH]n2)ccc2c1CS(=O)(=O)N2C (relative stereo)", 7.43),
    ("CC(C)NC(=O)O[C@H]1CC[C@@H](c2cc(Nc3ccc4c(c3F)CN(CCN3CCOCC3)S4(=O)=O)n[nH]2)C1 (relative stereo)", 8.20),
    ("CN1c2ccc(Nc3cc([C@@H]4CC[C@H](OC(=O)NC5COC5)C4)[nH]n3)cc2CS1(=O)=O (relative stereo)", 7.33),
]

###

Target: CDK1/Cyclin B1 (Homo sapiens, UniProt P06493)
Assay: CDK1/Cyclin B1 Biochemical Assay (TR-FRET), 0.015 mM ATP
Settings: 0.15 μM Rb (Ser780)-biotin substrate, pH7.0, 60 min preincubation, 120 min reaction, room temperature
pIC50: −log10 of the molar value.
The compounds listed here are annotated with their pIC50.

# compound, pIC50
rows = [
    ("C[C@H]1[C@H](O)CN1C(=O)O[C@H]1CC[C@@H](c2cc(Nc3ccc4c(c3)CS(=O)(=O)N4C)n[nH]2)C1 (relative stereo)", 7.07),
    ("CC(C)NC(=O)O[C@H]1CC[C@@H](c2cc(Nc3ccc4c(c3)C(C)S(=O)(=O)N4)n[nH]2)C1 (single isomer, unassigned) [Example 384d]", 7.24),
    ("CC1(NC(=O)O[C@H]2CC[C@@H](c3cc(Nc4ccc5c(c4Cl)CNS5(=O)=O)n[nH]3)C2)CC1 (single isomer, unassigned) [Example 40a]", 6.43),
    ("CC[C@H](C)NC(=O)O[C@H]1CC[C@@H](c2cc(Nc3ccc4c(c3F)C(C)NS4(=O)=O)n[nH]2)C1 (single isomer, unassigned) [Example 54a]", 6.51),
    ("CC[C@H](C)NC(=O)O[C@H]1CC[C@@H](c2cc(Nc3ccc4c(c3F)CN(C)S4(=O)=O)n[nH]2)C1 (single isomer, unassigned) [Example 123a]", 6.21),
    ("CCCNC(=O)O[C@H]1CC[C@@H](c2cc(Nc3cc4c(cc3F)N(CCO)S(=O)(=O)C4)n[nH]2)C1 (relative stereo)", 6.22),
]
